Entries and their EC50
Assayed target: human activated kallikrein enzyme (Homo sapiens, UniProt P03952)
Sequence (P03952 391-638 limits assumed): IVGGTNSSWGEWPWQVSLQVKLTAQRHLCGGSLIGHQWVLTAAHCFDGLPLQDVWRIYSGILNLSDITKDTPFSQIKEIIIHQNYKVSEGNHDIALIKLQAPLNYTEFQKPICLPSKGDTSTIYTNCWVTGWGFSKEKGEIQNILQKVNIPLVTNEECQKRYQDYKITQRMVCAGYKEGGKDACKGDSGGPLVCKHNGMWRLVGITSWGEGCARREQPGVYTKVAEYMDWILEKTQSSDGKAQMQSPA
Sequence (P03952 20-390 partner limits assumed): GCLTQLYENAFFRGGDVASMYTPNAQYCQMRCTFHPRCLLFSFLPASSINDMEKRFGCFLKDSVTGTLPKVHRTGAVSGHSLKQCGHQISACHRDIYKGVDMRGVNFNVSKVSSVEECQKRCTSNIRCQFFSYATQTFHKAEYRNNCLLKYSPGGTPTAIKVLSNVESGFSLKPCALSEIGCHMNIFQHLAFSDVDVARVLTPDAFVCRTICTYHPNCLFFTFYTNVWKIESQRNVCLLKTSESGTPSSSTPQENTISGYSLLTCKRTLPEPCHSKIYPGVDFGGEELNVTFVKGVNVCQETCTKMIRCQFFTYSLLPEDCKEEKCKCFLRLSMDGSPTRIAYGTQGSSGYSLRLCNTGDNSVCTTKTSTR
Assay: Inhibition of human activated plasma kallikrein, fluorogenic peptide substrate (PFR-AMC), 500 pM enzyme format
Conditions used: 500 pM activated kallikrein, 30 min preincubation, 10 min reaction, room temperature, read-out: Primary Dose Response Assay: Average EC50
Parameter measured: EC50

INSERT INTO assay_data (compound, result) VALUES
  ('CN1CCN(c2cc(C3CC3)cn3nc(CNc4cc(NC(=O)[C@H]5C[C@@H]5c5cccc(Cl)c5)ncn4)nc23)CC1', '2.5 to 25 nM'),
  ('O=C(Nc1cc(N2C[C@@H](O)C[C@@H]2C(=O)Nc2ccc(C3CC3)cc2)ncn1)[C@H]1C[C@@H]1c1cccc(Cl)c1', '> 500 nM'),
  ('Cc1ccnc([C@H]2C[C@@H]2C(=O)Nc2cc(NCc3cc4cc(C5CC5)cc(N5CC(=O)N(C)C5=O)n4n3)nc(C)n2)n1', '< 2.5 nM'),
  ('O=C(Nc1cnn(Cc2ccc(Cn3cccn3)cc2)c1)[C@H]1C[C@@H]1c1cccc(Cl)c1 (racemic)', '> 500 nM'),
  ('CN1CCN(c2cc(C3CC3)nn3cc(CNc4ccnc(NC(=O)[C@H]5C[C@@H]5c5cccc(Cl)c5)c4)nc23)CC1', '< 2.5 nM'),
  ('O=C(Nc1cc(NCc2ccc(Cn3ccccc3=O)cc2)cnn1)[C@H]1C[C@H]1c1cccc(Cl)c1 (racemic)', '> 500 nM'),
  ('CN1CCN(c2cc(C3CC3)cn3nc(CNc4ccnc(NC(=O)[C@H]5C[C@@H]5c5cccc(Cl)c5)c4)nc23)CC1', '< 2.5 nM');
